Data origin: patent US5212163A

- system: rabbit bone collagenase (Oryctolagus cuniculus, UniProt P13943)
- Sequence (P13943 99-468): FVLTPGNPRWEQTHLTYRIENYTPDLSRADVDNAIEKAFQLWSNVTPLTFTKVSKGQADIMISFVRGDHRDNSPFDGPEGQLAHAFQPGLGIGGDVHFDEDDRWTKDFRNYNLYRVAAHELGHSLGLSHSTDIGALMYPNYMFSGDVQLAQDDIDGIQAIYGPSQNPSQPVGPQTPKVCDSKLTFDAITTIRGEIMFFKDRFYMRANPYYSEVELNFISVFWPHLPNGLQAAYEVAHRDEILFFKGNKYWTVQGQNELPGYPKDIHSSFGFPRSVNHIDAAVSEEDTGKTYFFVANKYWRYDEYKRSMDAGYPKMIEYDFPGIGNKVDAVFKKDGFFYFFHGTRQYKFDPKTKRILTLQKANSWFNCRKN
pIC50: −log10 of the molar value.
Reported pIC50 by item:
readout-kind: pIC50

COC(=O)[C@H](C)NC(=O)[C@H](Cc1ccc(OC)cc1)NC(=O)[C@H](CC(C)C)NC(C)P(=O)(O)O (some centres unmarked) [Example E2] : 5.51
COC(=O)[C@H](C)NC(=O)[C@H](Cc1c[nH]c2ccccc12)NC(=O)[C@H](CC(C)C)NC(C)P(=O)(O)O (some centres unmarked) [Example E1] : 5.62
